# system: MERTK (UniProt Q12866)
# Sequence (Q12866 whole entry, looked up): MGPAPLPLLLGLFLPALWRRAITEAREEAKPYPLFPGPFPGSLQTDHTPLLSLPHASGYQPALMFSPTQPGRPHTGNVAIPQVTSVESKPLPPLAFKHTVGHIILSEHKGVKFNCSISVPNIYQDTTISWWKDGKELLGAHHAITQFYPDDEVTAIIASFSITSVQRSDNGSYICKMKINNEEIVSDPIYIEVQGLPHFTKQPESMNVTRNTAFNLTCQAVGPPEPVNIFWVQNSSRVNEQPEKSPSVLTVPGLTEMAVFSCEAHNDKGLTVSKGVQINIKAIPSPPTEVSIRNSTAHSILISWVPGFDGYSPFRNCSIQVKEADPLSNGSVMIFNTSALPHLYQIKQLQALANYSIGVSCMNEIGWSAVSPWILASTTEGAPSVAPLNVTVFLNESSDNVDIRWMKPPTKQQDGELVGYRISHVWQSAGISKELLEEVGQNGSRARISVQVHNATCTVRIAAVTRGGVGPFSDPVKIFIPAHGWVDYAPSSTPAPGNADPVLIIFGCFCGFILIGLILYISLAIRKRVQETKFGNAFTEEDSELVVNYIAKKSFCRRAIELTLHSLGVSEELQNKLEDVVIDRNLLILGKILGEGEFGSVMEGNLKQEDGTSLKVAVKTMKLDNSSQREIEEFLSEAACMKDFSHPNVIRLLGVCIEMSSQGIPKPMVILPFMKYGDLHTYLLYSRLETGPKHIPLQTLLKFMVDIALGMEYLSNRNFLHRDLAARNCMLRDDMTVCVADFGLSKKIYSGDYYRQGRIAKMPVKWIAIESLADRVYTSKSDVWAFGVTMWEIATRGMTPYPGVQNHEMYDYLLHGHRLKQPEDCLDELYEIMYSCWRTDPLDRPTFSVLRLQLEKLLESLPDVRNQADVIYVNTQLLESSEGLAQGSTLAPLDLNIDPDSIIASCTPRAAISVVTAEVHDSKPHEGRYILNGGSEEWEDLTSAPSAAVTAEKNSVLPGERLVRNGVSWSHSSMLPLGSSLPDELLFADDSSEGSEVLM
# assay details: phosphorylation enrichment, bacterial display (enrichment ratio); higher = better substrate or ligand; peptides without Tyr show the background;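 further: 11-residue human phosphosite peptides and single-mutation variants displayed on the E. coli surface, counted by deep sequencing, each peptide's frequency after selection divided by its frequency in the unselected input library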;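 further: frequency after pTyr selection over input frequency; kinase dosed for 20-30% of maximal phosphorylation in three min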
phosphorylation enrichment overview
endpoint name: phosphorylation enrichment

- TIMTNYNPNYC [ALK_Y1092_D1091N]: 0.407
- LGQRIYQFIRS [DYRK1B_Y271_Q275R_YF]: 6.97
- SHMVDYQPFRK [TEX37_Y25_YF]: 0.473
- HRGSLYLAIEF [TEK_Y899_Y897S_YF]: 0.538
- LRIAVYHEILI [CREBBP_Y1450_T1447I]: 1.62
- YAKSVYWENTL [NUP107_Y296]: 0.526
- NFCPGYNNFFN [USH2A_Y467_R464C_YF]: 0.458
